test_protocol: chemical genetic growth profiling, strain panel (AID 1159580);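 note: tested at 20 µM; growth read once vehicle control cultures reached saturation at 30 °C; 1 = growth at the plate median or of vehicle wells; lower values mean less growth of the strain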
run_parameters: S. cerevisiae deletion strains, growth OD, locus YLR371W, strain rom2, active compounds read low
Among all 5,500 compounds or so, about 2,000 (36%) were called active. About 18% were inconclusive and are not listed. The list shows a part of the results.
Measured normalized growth by item
result_type: normalized growth

> print(dat)
                                   molecule        result.type  recorded.result
1                       C=CCc1ccc2c(c1)OCO2  normalized growth            0.984
2  COc1ccc2cc1Oc1ccc(cc1)C[C@H]1c3cc(c(OC)cc3CCN1C)Oc1c(OC)c(OC)cc3c1[C@H](C2)N(C)CC3  normalized growth             1.01
3  OCC(O)Cc1ccc2c(c1)OCO2 (stereo not drawn)  normalized growth            0.989

----------
test_protocol: chemical genetic growth profiling, strain panel (AID 1159580);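 note: tested at 20 µM; growth read once vehicle control cultures reached saturation at 30 °C; 1 = growth at the plate median or of vehicle wells; lower values mean less growth of the strain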
run_parameters: S. cerevisiae deletion strains, growth OD, locus YJL168C, strain set2
About 2,000 (36%) of roughly 5,500 compounds were called active. Not shown: some 18% with an inconclusive outcome. Cut-off read from the data, not from the text of the source: active = normalized growth mostly below about 0.91 (no sharp cut-off); inconclusive = no clear call, values can overlap the other calls; inactive = mostly above about 0.92. This is one part of the list.
Outcome codes: active, inactive

> print(dat)
                                    molecule  qualitative.label
 1  Cc1ccc(C(=O)C(C)CN2CCCCC2)cc1 (configuration not stated)           inactive
 2  O[C@H]1C=C2CCN3Cc4cc5c(cc4C(C23)[C@@H]1O)OCO5 (some centres not stated)             active
 3  COc1ccc(-c2coc3c(OC)c(OC)cc(OC)c3c2=O)cc1           inactive
 4  COC1C(O)C(O)C(O)[C@@H](O)C1O (some centres not stated)           inactive
 5   Cc1c(O)cc(O)c2c(=O)c(-c3ccc(O)cc3)coc12           inactive
 6             COc1ccc(C(=O)c2ccccc2O)c(O)c1           inactive
 7                CN=C(NC#N)NCCSCc1nc[nH]c1C           inactive
 8  CC(=C(CCOP(=O)(O)O)SC(=O)c1ccccc1)N(C=O)Cc1cnc(C)nc1N           inactive
 9          OC(CCN1CCCCC1)(c1ccccc1)c1ccccc1           inactive
10              COc1ccc(C(=O)c2ccccc2)c(O)c1             active
11             COc1cc(O)c(C(=O)c2ccccc2)cc1O           inactive
12        COc1cc(O)c2c(=O)cc(C)oc2c1CC=C(C)C           inactive

----------
Measured normalized growth by item
test_protocol: chemical genetic growth profiling, strain panel (AID 1159580);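 note: tested at 20 µM; growth read once vehicle control cultures reached saturation at 30 °C; 1 = growth at the plate median or of vehicle wells; lower values mean less growth of the strain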
run_parameters: S. cerevisiae deletion strains, growth OD, locus YNL322C, strain KRE1 (second series), active compounds read low
Out of some 5,500 compounds screened, about 2,000 (36%) were called active. Roughly 18% stayed inconclusive and do not appear here. Some of the results follow.

molecule	normalized growth
CCC1(c2ccccc2)C(=O)NCNC1=O	1.01
CCC1(c2ccc(N)cc2)CCC(=O)NC1=O (stereo not given)	0.973
CNC1(C)C2CCC(C2)C1(C)C (stereo not given)	1
CC(=O)O[C@]1(C(C)=O)CCC2C3C=C(Cl)C4=CC(=O)CC[C@]4(C)C3CC[C@@]21C (stereo not given in full)	1.01
CN1C2CC3C[C@H]1C(O3)C2O (stereo not given in full)	1.02
CC(C)(N=NC(C)(C)C(=N)N)C(=N)N	1.01
CC(=O)O[C@H]1C(=O)[C@@]2(C)C([C@H](OC(=O)c3ccccc3)[C@]3(O)C[C@H](OC(=O)[C@H](O)[C@@H](NC(=O)c4ccccc4)c4ccccc4)C(C)=C1C3(C)C)[C@]1(OC(C)=O)CO[C@@H]1C[C@@H]2O (stereo not given in full)	0.986
COc1ccc2c(c1)C1(C)CCC(=O)CC1CC2 (stereo not given)	0.995
CN1CCCC(n2nc(Cc3ccc(Cl)cc3)c3ccccc3c2=O)CC1 (stereo not given)	1.01
NC(N)=NOCC[C@H](N)C(=O)O	1.01
CCCCCCCCCCCCCCCCOP(=O)([O-])OCC[N+](C)(C)C	0.0641
O=[N+]([O-])O[C@H]1CO[C@H]2[C@@H]1OC[C@H]2O[N+](=O)[O-]	0.979
COc1cc(O)c(C(=O)c2ccccc2)cc1O	0.973
O=C(/C=C/c1ccccc1)O[C@H]1C[C@@H](O)[C@]2(O)C=CO[C@@H](O[C@@H]3O[C@H](CO)[C@@H](O)[C@H](O)[C@H]3O)[C@H]12	1.03
COc1cc2c(cc1OC)C(=O)C(CC1CCN(Cc3ccccc3)CC1)C2 (stereo not given)	0.981
CC(=O)OCC(CCn1cnc2cnc(N)nc21)COC(C)=O	0.995
COc1cc(OC)c2c(c1)O[C@H](c1ccc(OC)c(OC)c1)[C@@H](O)C2	1.01
Cn1cc[nH]c1=S	0.966
CC1(C)C2CC[C@]3(C)C(C(=O)C=C4[C@@H]5C[C@@](C)(C(=O)O)CC[C@]5(C)CC[C@]43C)[C@@]2(C)CC[C@@H]1O (stereo not given in full)	0.982
CC1(C)C2CC[C@]3(C)C(C(=O)C=C4[C@H]5C[C@@](C)(C(=O)O)CC[C@]5(C)CC[C@]43C)[C@@]2(C)CC[C@@H]1O (stereo not given in full)	1.01
Cc1ccc(O)cc1	1.02
CCN(CC)C(=S)SSC(=S)N(CC)CC	0.0666
NCC1CCCCC1CC(=O)O (stereo not given)	1.02
N#Cc1c(Cl)c(Cl)c(Cl)c(C#N)c1Cl	0.0768
CC(C)N(C(=O)CCl)c1ccccc1	1.04
CCCCCC(=O)O[C@]1(C(C)=O)CCC2C3CCC4=CC(=O)CC[C@]4(C)C3CC[C@@]21C (stereo not given in full)	0.999
COc1ccc2c(c1)OC[C@@H](Cc1ccc(OC)c(OC)c1)[C@@H]2O	0.967
COc1ccc(C(=O)c2ccccc2O)c(O)c1	0.888
CC[C@H]1OC(=O)C[C@@H](O)[C@H](C)[C@@H](O[C@@H]2O[C@H](C)[C@@H](O[C@H]3C[C@@](C)(O)[C@@H](O)[C@H](C)O3)[C@H](N(C)C)[C@H]2O)[C@@H](CC=O)C[C@@H](C)C(=O)/C=C/C(C)=C/[C@@H]1CO[C@@H]1O[C@H](C)[C@@H](O)[C@@H](OC)[C@H]1OC	0.985
Cc1c(N(C)C)c(=O)n(-c2ccccc2)n1C	0.975
OC(CCN1CCCCC1)(c1ccccc1)c1ccccc1	0.987
CC(C)CC1C(=O)N2CCC[C@H]2C2(O)O[C@](NC(=O)C3C=C4c5cccc6[nH]c(Br)c(c56)C[C@H]4N(C)C3)(C(C)C)C(=O)N12 (stereo not given in full)	0.992
CC1(C)C2CC[C@]3(C)C(C(=O)C=C4[C@@H]5C[C@@](C)(C(=O)O)CC[C@]5(C)CC[C@]43C)[C@@]2(C)CC[C@@H]1OC(=O)CCC(=O)O (stereo not given in full)	0.979
CCC1(C)CC(=O)NC1=O (stereo not given)	0.982
Cc1cc(OC(=O)N2CCCCC2)c(C(C)C)cc1[N+](C)(C)C	1

----------
test_protocol: chemical genetic growth profiling, strain panel (AID 1159580);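 note: tested at 20 µM; growth read once vehicle control cultures reached saturation at 30 °C; 1 = growth at the plate median or of vehicle wells; lower values mean less growth of the strain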
run_parameters: S. cerevisiae deletion strains, growth OD, locus YGR252W, strain gcn5, active compounds read low
Out of some 5,500 compounds screened, about 2,000 (36%) were called active. About 18% were inconclusive and are not listed. The list shows a part of the results.
result_type: normalized growth

> print(dat)
                                    compound  recorded.result
 1                    O=c1ccc2cc(O)c(O)cc2o1            0.942
 2         CC(C)=CCc1c(O)cc2oc(C)cc(=O)c2c1O            0.878
 3       Cc1ccc2c(c1)CC[C@H]1CC(=O)CC[C@]21C            0.881
 4  CNC1(C)C2CCC(C2)C1(C)C (configuration not stated)             1.08
 5  COc1cccc2c1CCC1CC(=O)CCC21C (configuration not stated)            0.777
 6                  CC(C)=CCc1c(O)cc(C)oc1=O             1.03
 7                             NC/C=C/C(=O)O             1.03
 8  CNc1ccccc1C(=O)N1CCc2c([nH]c3ccccc23)C1=O            0.924
 9  COc1ccc2c(c1)C1(C)CCC(=O)CC1CC2 (configuration not stated)             0.96
10  CC(C)[N+](C)(CCOC(=O)C1c2ccccc2Oc2ccccc21)C(C)C            0.956
11   COc1ccc2c(c1)[C@@]1(C)CCC(=O)C[C@H]1CC2            0.933
12                O=C(O)COc1cc(Cl)c(Cl)cc1Cl             1.04
